- ASSAY_SUMMARY: NCI Yeast Anticancer Drug Screen. Data for the mec2-1 strain (AID 157)
- RUN_PARAMETERS: S. cerevisiae mec2-1 strain, at 50.0 µM
This is part of a sample that, as a whole, favours compounds with a hit. Of some 79,000 tested, about 15% had one in any assay. The source made the active and inactive calls. No stated cut-off is given here; in the data, active means growth inhibition above about 70%; inactive means the rest.
// one of t for active, f for inactive, no free text

Field: example entries. Status: answers known.
COMPOUND	LABEL_VALUE
Cc1cccc(C)c1NC(=O)CCc1nnc(N)n1N	f
O=C1C(Cl)=C(Cl)C(=O)c2cc(Cl)c(Cl)cc21	t

Prompt line: Record lookup: outcome of this test for C=C1C(=O)OC2C(C)C3C=CC(=O)[C@@]3(C)C(OC(=O)/C(C)=C/C)C1[C@@H]2OC(C)=O (stereo partly specified) ?
Response line: t

Prompt line: Record lookup: outcome of this test for O=C1C(=O)c2cc(Cl)ccc2-c2ccc(Cl)cc21 ?
Response line: t

Prompt line: Record lookup: outcome of this test for CCCNC(=O)N(CC(C)(C)C)S(=O)(=O)c1ccc(Cl)cc1 ?
Response line: t

Prompt line: Record lookup: outcome of this test for O=c1c2[nH]c3cccc(Cl)c3c2cnn1-c1ccc(F)cc1 ?
Response line: t

* * *

- ASSAY_SUMMARY: NCI Yeast Anticancer Drug Screen. Data for the mec2-1 strain (AID 157)
- RUN_PARAMETERS: S. cerevisiae mec2-1 strain, at 50.0 µM (retest, dose inferred, filed as 5.0), stronger effect = higher value
This is part of a sample that, as a whole, favours compounds with a hit. Of some 79,000 tested, about 15% had one in any assay.
EXPERIMENTAL_READOUT: growth inhibition (%)
Unit % implied. Number only.

The cases that follow already have their growth inhibition on record.
COMPOUND	growth inhibition [%]
Cc1ccc(NC(=O)Oc2ccc(OC(=O)Cc3ccccc3)cc2)cc1NC(=O)Oc1ccc(OC(=O)Cc2ccccc2)cc1	94
O=[N+]([O-])/C(C(Cl)=C(Cl)Cl)=C(/Cl)SCc1ccccc1	99
NCCC(N)P(=O)(O)O (stereo unspecified)	-48

For reference, reported growth inhibition for CCCCN(c1ccccc1)c1ncnc2c1ncn2C stands at 86

For reference, reported growth inhibition for O=C(Nc1ccccc1Cl)c1ccc(Cl)c(Cl)c1 stands at 2

For reference, reported growth inhibition for Oc1[nH]c2ccccc2c1N=NC(=S)N1CCCCCC1 stands at 97

For reference, reported growth inhibition for Cc1ccccc1P(=O)(c1ccccc1C)c1ccccc1C stands at 28

For reference, reported growth inhibition for CCN=C(N)Nc1nc(-c2ccc(Cl)cc2)cs1 stands at 99

For reference, reported growth inhibition for Cc1cc(NC(=S)SCc2ccc(F)cc2)c([N+](=O)[O-])cc1C stands at 99

For reference, reported growth inhibition for N=C(N)Cc1ccc(NC(=O)c2ccc(C(=O)Nc3ccc(CC(=N)N)cc3)cc2)cc1 stands at 14

For reference, reported growth inhibition for Cc1cc(C)c(O)c(C2CC3CCC2(C)C3(C)C)c1 (stereo unspecified) stands at 92

* * *

growth inhibition reference
- ASSAY_SUMMARY: NCI Yeast Anticancer Drug Screen. Data for the sgs1 mgt1 strain (AID 161);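 further: 0% = growth of cultures given vehicle only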
- RUN_PARAMETERS: S. cerevisiae sgs1 mgt1 strain, at 5.0 µM (retest, dose inferred, filed as 0.5), stronger effect = higher value
Compounds without any hit were thinned out: in the full panel of roughly 79,000, 15% have a hit.
Unit % implied. Number only.

The cases that follow already have their growth inhibition on record.
COMPOUND	MEASUREMENT_UNIT	growth inhibition
CCC(CC)C(=O)O.[Ag]	%	99
c1ccc2c(c1)N=c1ccccc1=P21c2ccccc2Nc2ccccc21	%	84
CCOc1c(N=Nc2ccc(Cl)cc2)c(-c2ccccc2)nn1C(=S)S	%	8

For reference, reported growth inhibition for CC(C)c1ccc2c(c1)CCC1C(C)(CN)CCCC21C (configuration not stated) stands at 35

For reference, reported growth inhibition for O=C(O)CC1c2ccccc2-c2ccccc21 stands at -4

For reference, reported growth inhibition for Cc1ccc2c(c1)C1(SC(C)C(=O)N1c1ccc(Cl)cc1)C(=O)N2CN1CCOCC1 (configuration not stated) stands at -3

For reference, reported growth inhibition for COc1ccc2ccccc2c1/C=C/C(=O)c1ccccc1 stands at 11

Measured values drawn from PubChem BioAssay (NCI) for this set.
